Test system: DA rats
assay explanation: Arthritis-inducing effect of oils injected intradermally at the base of the tail
Type: in vivo, Rat (Rattus norvegicus)
experimental setup: oil injected intradermally at base of tail, scored days 12-31, FIG. 10
observable: arthritis induction

>>> df
                          compound           observable    value_measured
0  CCCCCCCCCCCCCCCCCC [octadecane]  arthritis induction  induce arthritis
1  CCCCCCCCCCCCCCCCC [heptadecane]  arthritis induction  induce arthritis
